Test system: Erwinia amylovora
Test: Spot test screening of AMPs on plates
Assay type: cell-based, Erwinia amylovora strain PGL Z1
Parameters: key: +: Clear plaque formation; -: no plaque formation
Settings: 5 µL peptide at 500 µM spotted on plate with E. amylovora 10^8 CFU/mL, overnight at 25 °C
Ends that are not written are not given here.
assay-readout: Spot test result at 500 µM

Recorded Spot test result at 500 µM, per entry:
>>> print(df.to_string())
                                  substance               assay_readout  result
0  VQFRIRVRIVIRK-NH2 [VK13, 1036, synthetic antimicrobial peptide, synthesized by ProteoGenix]  Spot test result at 500 µM       +
1  FFHHIFRGIVHVGKTIHRLVTG [FG22, Piscidin 1]  Spot test result at 500 µM       +
2        IKWKKLLRAAKRIL-NH2 [IL14, DASamP2]  Spot test result at 500 µM       +
3  GLLGLLGSVVSHVVPAIVGHF-NH2 [GF21, Maculatin 1.3, antimicrobial peptide of frog origin, synthesized by ProteoGenix]  Spot test result at 500 µM       +
4  FFGKVLKLIRKIF-NH2 [FF13, DASamP1, synthetic antimicrobial peptide, synthesized by ProteoGenix]  Spot test result at 500 µM       +

Q: Identify the reported Spot test result at 500 µM for the following entry. RIVWVRIRRWFV-NH2 [RV12, RIJK2, synthetic antimicrobial peptide, synthesized by ProteoGenix]
A: +

Q: Identify the reported Spot test result at 500 µM for the following entry. GFKDLLKGAAKALVKTVLF-NH2 [GF19, Ascaphin-8]
A: +
